Origin of measurements: ChEMBL document CHEMBL1155717

Test: Antiinflammatory activity in human PMNC assessed as inhibition of proliferation
Type: functional
recorded_endpoint: pIC50
// scale note: pIC50 = -log10(conc_M); give the bare number

These recorded examples may help you get a feel for the data.
- C[C@@H]1CC[C@]2(C(=O)O)CC[C@]3(C)C(=CC[C@@H]4[C@@]5(C)C[C@@H](O)C(=O)C(C)(C)[C@@H]5CC[C@]43C)[C@@H]2[C@]1(C)O: 4.40
- C[C@@H]1CC[C@]2(C(=O)O)CC[C@]3(C)C(=CC[C@@H]4[C@@]5(C)[C@H](O)C(=O)[C@H](O)C(C)(C)[C@@H]5CC[C@]43C)[C@@H]2[C@]1(C)O: 4.49
- C[C@@H]1CC[C@]2(C(=O)O)CC[C@]3(C)C(=CC[C@@H]4[C@@]5(C)[C@H](O)[C@@H](O)C(=O)C(C)(C)[C@@H]5CC[C@]43C)[C@@H]2[C@]1(C)O: 4.57
- C[C@@H]1CC[C@]2(C(=O)O)CC[C@]3(C)C(=CC[C@@H]4[C@@]5(C)CC(=O)[C@H](O)C(C)(C)[C@@H]5CC[C@]43C)[C@@H]2[C@]1(C)O: 4.42

Shift focus to the following entry.
Reported pIC50 for C[C@@H]1CC[C@]2(C(=O)O)CC[C@]3(C)C(=CC[C@@H]4[C@@]5(C)C[C@@H](O)[C@@H](O)C(C)(C)[C@@H]5CC[C@]43C)[C@@H]2[C@]1(C)O : what is it?
4.54
